In this section, each of the sequences is paired with its reported binding signal.
# EXPERIMENTAL SYSTEM: OsWRKY34 (Oryza sativa, UniProt Q0JBA9 1-250)
# Sequence (Q0JBA9 entry or part of it): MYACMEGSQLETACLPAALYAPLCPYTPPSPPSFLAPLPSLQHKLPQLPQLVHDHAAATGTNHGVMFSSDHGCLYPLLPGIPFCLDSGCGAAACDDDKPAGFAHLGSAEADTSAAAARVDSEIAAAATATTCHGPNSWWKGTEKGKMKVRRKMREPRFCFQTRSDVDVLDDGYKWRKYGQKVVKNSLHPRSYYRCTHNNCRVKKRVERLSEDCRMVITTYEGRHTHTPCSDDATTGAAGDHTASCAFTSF
# RUN DESCRIPTION: protein-binding microarray (RPBM); PBS, 2% BSA, 51.3 ng/ul salmon testes DNA, 50 uM zinc acetate, 200 nM TF, 25 C, 1 h; high values mean tight binding
# EXPERIMENTAL PARAMETERS: protein: recombinant; tags: N-terminal polyhistidine and DsRed monomer fusion (pET32a); label: CyDye5-dUTP incorporated in the synthesized complementary strand; 3' TTTTT single-stranded linker to array surface; dsDNA, one strand shown
Whole data set: some 68,000 sequences, median “fluorescence intensity (a.u.)” near 9,100, cut for the highest 2% near 16,000. For the sample, the highest values were picked, then their nearest neighbours and some sequences at random.

Below are worked cases with known answers.
>  <SEQUENCE CONTENT>
ATCCGATTTTTTTTCGCAATCTCCGAAATTTCACTTCTATCGGAGTCACCTAGTGCAG

>  <PROPERTY MEASURED>
binding signal

>  <OBSERVED VALUE>
11200 fluorescence intensity (a.u.)

$$$$
>  <SEQUENCE CONTENT>
CCGCCGCCGCCGCCGCCGACCTTGTCACTCCGGCCGCTGCCGGAGTCACCTAGTGCAG

>  <PROPERTY MEASURED>
binding signal

>  <OBSERVED VALUE>
9390 fluorescence intensity (a.u.)

$$$$

In: For the sequence CGTTTGGCCAAGTATATGACGCCCTAACTTATAAGTTGACCGGAGTCACCTAGTGCAG , what binding signal is on record?
Out: 8420 fluorescence intensity (a.u.)

In: For the sequence TGTTCTTTTTTTTTACACGCGTTTTTTTTACATTGTCGTTCGGAGTCACCTAGTGCAG , what binding signal is on record?
Out: 18400 fluorescence intensity (a.u.)

In: For the sequence TCCCTCGGTCCCATCGTATATATATATACCGTATGTCCCGCGGAGTCACCTAGTGCAG , what binding signal is on record?
Out: 9470 fluorescence intensity (a.u.)

In: For the sequence GGAAGATTACCCTGTTTACCACTCACTGTACGATGATTATCGGAGTCACCTAGTGCAG , what binding signal is on record?
Out: 9260 fluorescence intensity (a.u.)

In: For the sequence AACTGAATTGTTGGTTTTTTCGGTTTTCGGTTGTCAGTTCCGGAGTCACCTAGTGCAG , what binding signal is on record?
Out: 11900 fluorescence intensity (a.u.)

In: For the sequence GGCGGGGCAGACGGAGGCCGACGGCTGCAGCGGGCTGGGGCGGAGTCACCTAGTGCAG , what binding signal is on record?
Out: 9010 fluorescence intensity (a.u.)

In: For the sequence ACGCCGTTAACTTTTTATCCAATGTTTGACCATTCGTCTTCGGAGTCACCTAGTGCAG , what binding signal is on record?
Out: 13000 fluorescence intensity (a.u.)

In: For the sequence GCATCGTGGGGTGTGGGTGGCGGTTTTGGAGGGGAGAGGTCGGAGTCACCTAGTGCAG , what binding signal is on record?
Out: 23200 fluorescence intensity (a.u.)

----------
In this section, each of the sequences is paired with its reported binding signal.
# EXPERIMENTAL SYSTEM: OsWRKY34 (Oryza sativa, UniProt Q0JBA9 1-250)
# RUN DESCRIPTION: protein-binding microarray (RPBM); PBS, 2% BSA, 51.3 ng/ul salmon testes DNA, 50 uM zinc acetate, 200 nM TF, 25 C, 1 h; high values mean tight binding
# EXPERIMENTAL PARAMETERS: protein: recombinant; tags: N-terminal polyhistidine and DsRed monomer fusion (pET32a); label: CyDye5-dUTP incorporated in the synthesized complementary strand; 3' TTTTT single-stranded linker to array surface; dsDNA, one strand shown
The full ranking holds about 68,000 sequences; the median of “fluorescence intensity (a.u.)” is about 9,100, and the highest 2% start at about 16,000. The list comes from a sample in which the highest values are over-represented; it also holds close analogues and randomly drawn sequences.

Below are worked cases with known answers.
>  <SEQUENCE CONTENT>
CGCCACCACTGCTGCCATCGTCAACATCCTATATGATTTTCGGAGTCACCTAGTGCAG

>  <PROPERTY MEASURED>
binding signal

>  <OBSERVED VALUE>
13400 fluorescence intensity (a.u.)

$$$$
>  <SEQUENCE CONTENT>
CTCTCTCATCTGATTCTTGCGTTTTTCCTGTGGTCCAATCCGGAGTCACCTAGTGCAG

>  <PROPERTY MEASURED>
binding signal

>  <OBSERVED VALUE>
12000 fluorescence intensity (a.u.)

$$$$

In: For the sequence CTCTCATCCGATTCCTGCGTTTTTCCTGTGGTTCAATCATCGGAGTCACCTAGTGCAG , what binding signal is on record?
Out: 17900 fluorescence intensity (a.u.)

In: For the sequence GCTCGGTGTGGCGATCTCACAGCCGCATATCGCATTTCACCGGAGTCACCTAGTGCAG , what binding signal is on record?
Out: 8680 fluorescence intensity (a.u.)

In: For the sequence CTACCAACCTGTTCATCATGGCCCGACTCCATTCATGTCACGGAGTCACCTAGTGCAG , what binding signal is on record?
Out: 10300 fluorescence intensity (a.u.)

In: For the sequence TCCGGTTGTTTGCCGTGGCACTTCCTTTCTCCCTATTGGCCGGAGTCACCTAGTGCAG , what binding signal is on record?
Out: 8260 fluorescence intensity (a.u.)

In: For the sequence TATGCCTATCTGAATTGGTTACTGTTCGTTTTTCCACTTACGGAGTCACCTAGTGCAG , what binding signal is on record?
Out: 10800 fluorescence intensity (a.u.)
